Molecular target: human Mnk2a (Homo sapiens)
Construct: made in house; host or cells: E. coli BL21 (vector pGEX-4T1)
Sequence (Q9HBH9 whole entry): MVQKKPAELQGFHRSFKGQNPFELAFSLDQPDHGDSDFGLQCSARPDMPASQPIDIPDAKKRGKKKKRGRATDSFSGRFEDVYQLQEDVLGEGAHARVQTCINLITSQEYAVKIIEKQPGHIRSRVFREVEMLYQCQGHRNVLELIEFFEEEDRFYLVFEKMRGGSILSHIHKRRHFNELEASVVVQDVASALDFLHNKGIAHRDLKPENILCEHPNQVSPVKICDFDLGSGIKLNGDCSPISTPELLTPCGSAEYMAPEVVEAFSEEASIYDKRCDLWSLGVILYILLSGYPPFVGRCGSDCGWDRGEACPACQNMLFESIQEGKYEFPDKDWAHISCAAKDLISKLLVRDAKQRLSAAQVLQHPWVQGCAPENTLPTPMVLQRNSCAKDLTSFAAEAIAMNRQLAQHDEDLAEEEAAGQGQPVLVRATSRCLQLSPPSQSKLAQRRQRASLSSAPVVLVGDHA
Assay: Mnk2a in vitro kinase assay (indirect fluorescence polarization)
Type: biochemical
Details: GST-Mnk2a pre-activated with ERK2, 20 μM ATP, 30 μM substrate peptide; read-out: MNK2 IC50
Protocol: Inhibitory potency of compounds against Mnk1, Mnk2a and other kinases was assessed with assays based on a format known to those skilled in the art as the indirect (competitive) fluorescence polarization. The assay detection system comprises a small fluorophore-labeled phospho-peptide (termed ligand) bound to a phospho-specific antibody. The product generated by the kinase reaction competes with the ligand for antibody binding. […]
Endpoint: IC50 (nM)

Recorded results for 4 compounds are shown here.
| Compound | Recorded value |
| --- | --- |
| Cc1c(C(=O)NCCNc2ccccc2)sc2ncnc(Nc3ccc(F)cc3OC3CCCNC3)c12 (centres unmarked) [Example 43] | 56 |
| Cc1c(C(=O)N[C@H]2C[C@@H]2N)sc2ncnc(Nc3ccc(F)cc3OC3CCOCC3)c12 [Example 144] | 47 |
| Cc1c(C(N)=O)sc2ncnc(Nc3ccc(F)cc3O[C@@H]3CCCN(Cc4ncon4)C3)c12 [Example 72] | 9 |
| CCC(C)CNC(=O)c1sc2ncnc(Nc3ccc(F)cc3OC3CCCNC3)c2c1C (centres unmarked) [Example 20] | 67 |

(1) Cc1c(C(=O)NCc2cccc3ccccc23)sc2ncnc(Nc3ccc(F)cc3OC3CCCNC3)c12 (centres unmarked) [Example 60]
(2) Cc1c(C(N)=O)sc2ncnc(Nc3ccc(F)cc3O[C@@H]3CCCN(CC(F)F)C3)c12 [Example 74]
(3) Cc1c(C(N)=O)sc2ncnc(Nc3ccc(F)cc3O[C@H]3CCCN(S(C)(=O)=O)C3)c12 [Example 10]
(4) CCN1CCC[C@@H]1CNC(=O)c1sc2ncnc(Nc3ccc(F)cc3OC3CCCNC3)c2c1C (some centres unmarked) [Example 52]
Arrange the 4 entries by IC50 so the values rise. Write the labels out in the order the request specifies. 2, 3, 1, 4
(2: 3 nM, 3: 10 nM, 1: 64 nM, 4: 130 nM)
